Consider the following compounds and their measured IC50 readings.
# assayed.target: UniProtKB O60341
# test.description: Inhibition of recombinant LSD1 (unknown origin) using H3K4me2 peptide as substrate preincubated for 10 mins followed by substrate addition and measured after 30 mins by amplex red based fluorescence microplate reader analysis
Value expressed in nM; do not type the unit.

{"smiles.text": "COc1ccc(CN(C(=O)CSC(=S)N2CCN(c3ccc(N)cc3)CC2)c2cc(OC)c(OC)c(OC)c2)cc1O", "assayed.target": "UniProtKB O60341", "assay.value": 2810}

# input Tell me the measured IC50 of COc1ccc(CN(C(=O)CSC(=S)N2CCN(C(=O)OC(C)(C)C)CC2)c2cc(OC)c(OC)c(OC)c2)cc1O , please.
# output 2670

Source: ChEMBL document CHEMBL5346930
